assay: Sample stability of DM1-related impurities with DS-DM1-deJ591 in the autosampler (Hisep RP-HPLC); conditions: t = 12 h
endpoint_label: Average peak area

Solved cases (3 shown):
molecule	Average peak area
S=c1cccc[nH]1	15654
COc1cc2cc(c1Cl)N(C)C(=O)C[C@H](OC(=O)[C@H](C)N(C)C(=O)CCS)[C@]1(C)O[C@H]1[C@H](C)[C@@H]1C[C@@](O)(NC(=O)O1)[C@H](OC)/C=C/C=C(\C)C2	217293
CC(CCC(=O)O)SSc1ccccn1 (stereo not shown)	15377

Now for the molecule whose Average peak area we want.
Could you tell me which Average peak area is on file for COc1cc2cc(c1Cl)N(C)C(=O)CC(OC(=O)C(C)N(C)CC(=O)CCSSC(C)CCC(=O)O)C1(C)OC1C(C)C1CC(O)(NC(=O)O1)C(OC)C=CC=C(C)C2 (stereo not shown) ?
245410
